- assayTarget: SARS-CoV-2 RBD (residues 319-541), ancestral strain (SARS-CoV-2, UniProt P0DTC2)

{"binder": "GAR13 (antibody, V domains shown) VH: EVQLVESGGGLVQPGGSLRLSCAASGFTFSNYDMHWVRQVTGKGLEWVSLIGTSGDTYYPGSVKGRFTISRDNAKNSLYLQMNSLRADDTAVYYCVRAAFDDHNIYSWFDSWGQGTLVTVSS VL: DIQMTQSPSSLSASVGDRVTITCRASQSIGRYLNWYQQKPGKAPKLLIYTASSLQSGVPSRFSGSGSGTEFTLTISSLQPEDFATYYCQQSYNIPPLTFGGGTKVEIK", "binding result": "binds"}
{"binder": "GAR16 (antibody, V domains shown) VH: EVQLVESGGGVVQPGGSLRLSCAASGFTFSNYDMHWVRQATGKGLEWVSAIGTAGDTYYPDSVKGRFTISRDNAKNSLYLQMNSLRAEDTAVYYCTRVVHSSDWTSWSAGIHNWFDSWGQGTLVTVSS VL: DIVMTQSPSSLSASVGDRVSITCRTSQSIRTYLNWYQQKPGKAPKLLIYASSSLQSGVPSRFSGSGSGTDFTLSISSLQPEDFATYYCQQSYSMPPWTFGQGTKLEIK", "binding result": "binds"}
{"binder": "GAR15 (antibody, V domains shown) VH: EVQLVESGGGLVQPGGSLRLSCAASGLTVSSNYMSWVRQAPGKGLEWVSVIYSGGSTFYADSVKGRFTISRHNSKNTLYLQMNSLRGDDTAVYYCARDLIYYGMDVWGQGTTVTVSS VL: DIVMTQSPSSLSASVGDRVTITCRASQGISSSLAWYQQNPGKPPKLLIYAASTLQSGVPSRFSGSGSGTDFTLTISSLQPEDFATYYCQQLNSDLYTFGQGTKVEIK", "binding result": "binds"}
